- TEST_NAME: protease stability score; higher = more stable; yeast display proteolysis, trypsin and chymotrypsin;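 note: relative to predicted unfolded state with 0 unfolded-like and 1 meaning tenfold more protease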
Quick reference for protease stability score among some sequences
Write no unit; give the number alone.

> print(dat)
                              item.sequence  result
1  REDDEMSEEANRLLHELVRTGDFEQLIKNMDPNTRLRQGDKHFHGREEYEKHWRELLERAGLERVELHIDDIRVFNGVAHINGTLRIGDKVMEVRLILTKFNGKWIFTSMEIH    1.26
2  TEEETETRNLLELFIRSLHTGDEDLTKRLLDPNVRLELGEWEAHGRESVSEVLRLLWELLGVKHIEHHVHDMRVFNGRVHADTRVIMVFDGREHRIETELIVVKIDGRWFIKSIHIR    1.61
3  DERHKHDIEVAKEFLEVERTGDEHLLRRLADPHVLSNINGVHNHGRETVIEFWREWFEEWRVTEIKIRHLDAYDGRVRIEGRMRVIYDGREHTIDSEFRLVVVNGRLKSMELILH  -0.043
4  SEEHEDAEKWIRILLRDLKTGDEESLFQLLDPHTKLEVGDKHFHGREQVMRYVLHELKRVDHMEVELKHHHIQGEKAHLDIEVHNIFDGRVFVKHVHIDSKKINGRWRQEKIYIE    1.33
5  DEHTHEIEHMLRHFLETLETGDEERYDRLADPHTRIDIGDKHLHGREKAQKLWRHWWKRFDHIHHLHIHHLEAVDGVNHVELREDIRVDGRRVIIRSLLILVVIDGRLREVRVEER   0.496
6  DEERHYVEHIIKLLSRHIYTGDFEAFEELLDPNALIIIGDKHLVGREDWRRLVHEIRIRNEHVEIEDVNVYDGRAESKVTFHGRREYDGRTTETNLDVNYFLLKINGRWVFESLEIR    1.67

q: Can you share its protease stability score? I mean this sequence: SEEEKDIKNAFRLLVKIIRTGDWEDHHKQMDPDVLIIVGDKEHHGWEEASRFMKEHLERVDHEDLKLRRVHIQGEKMELDGELFVNVDGRLIRMRVIFFLNKVNGRWVIHSLEIR
a: 2.28

q: Can you share its protease stability score? I mean this sequence: HDKEKEDKEWIKRLLDTIETGDPEQFSHLADPNVKAEFENHDSVGMEEVFKILEHLRIDHVRMKDMRIQGDWVHLITEMDGTINGKKIILKSRIIALKVNGRWVLTSTSLK
a: 1.42

q: Can you share its protease stability score? I mean this sequence: SDEIEEVKTFVRLFTKDLETGNEEDLKRLADPNTRLDVNGREIHGWKSMEHRYRELMEKYKNLRIEVKIDDIRVQGDKIHIHTTIKLDYDGVDIELSSWLVIHKINGRWFVRSIEME
a: 0.605

q: Can you share its protease stability score? I mean this sequence: DEHTSRLERLAHLFFESWITGDFDALLKYLDPNVRIEQGDKHIHGREVMFEHLERLLKHWWFHEHRLRDVKSVNGVSHLHVHQRNEINGVELRYDFHIHLYIVDGRLKSMEFRIS
a: 1.07

q: Can you share its protease stability score? I mean this sequence: SELHKFAEELSRRWFEMVLTGDEDSLNELADPNVRNDVNGRELIGRESFAKWVKELRIEDVRHKRSRIEVQGDKMIIHMDIESVVTIDGVRRDQRYEIIIISRKVNGRWLVHSVEFRVE
a: 1.18
